# System: E. coli ATCC 25922
# EXPERIMENTAL PROTOCOL: Inhibition zone, paper disk/agar diffusion
# Format: cell-based
# ASSAY SETUP: E. coli; Na = no activity
VALUE KIND: Mean Diameter of the Inhibition Zone (mm)
Form entry: value (mm) — number only.

{"CPD SMILES": "N#CC(=Cc1ccc(Cl)cc1)C(=O)Nc1ccc(S(=O)(=O)NC(=N)N)cc1", "VALUE KIND": "Mean Diameter of the Inhibition Zone", "MEASUREMENT UNITS": "mm", "OBSERVED RESULT": 26}
{"CPD SMILES": "COc1ccc(/C=C(\\C#N)C(=O)Nc2ccc(S(=O)(=O)NC(=N)N)cc2)cc1", "VALUE KIND": "Mean Diameter of the Inhibition Zone", "MEASUREMENT UNITS": "mm", "OBSERVED RESULT": 23}
{"CPD SMILES": "Cc1cc(C=Cc2ccc(Cl)cc2)c(C#N)c(=O)n1-c1ccc(S(=O)(=O)NC(=N)N)cc1", "VALUE KIND": "Mean Diameter of the Inhibition Zone", "MEASUREMENT UNITS": "mm", "OBSERVED RESULT": 18}
{"CPD SMILES": "COc1ccc(/C=C(\\C#N)C(=O)Nc2ccc(S(=O)(=O)NC(=N)N)cc2)cc1O", "VALUE KIND": "Mean Diameter of the Inhibition Zone", "MEASUREMENT UNITS": "mm", "OBSERVED RESULT": 30}

Moving on to another compound below.
I am curious: what Mean Diameter of the Inhibition Zone value has been reported for `N#Cc1c(-c2ccc(Cl)cc2)c(C#N)c(=O)n(-c2ccc(S(=O)(=O)NC(=N)N)cc2)c1N` ?
24

====

# STUDY SYSTEM: S. aureus DNA gyrase (Staphylococcus aureus, UniProt P0A0K8+P20831)
# Sequence (P20831 whole entry): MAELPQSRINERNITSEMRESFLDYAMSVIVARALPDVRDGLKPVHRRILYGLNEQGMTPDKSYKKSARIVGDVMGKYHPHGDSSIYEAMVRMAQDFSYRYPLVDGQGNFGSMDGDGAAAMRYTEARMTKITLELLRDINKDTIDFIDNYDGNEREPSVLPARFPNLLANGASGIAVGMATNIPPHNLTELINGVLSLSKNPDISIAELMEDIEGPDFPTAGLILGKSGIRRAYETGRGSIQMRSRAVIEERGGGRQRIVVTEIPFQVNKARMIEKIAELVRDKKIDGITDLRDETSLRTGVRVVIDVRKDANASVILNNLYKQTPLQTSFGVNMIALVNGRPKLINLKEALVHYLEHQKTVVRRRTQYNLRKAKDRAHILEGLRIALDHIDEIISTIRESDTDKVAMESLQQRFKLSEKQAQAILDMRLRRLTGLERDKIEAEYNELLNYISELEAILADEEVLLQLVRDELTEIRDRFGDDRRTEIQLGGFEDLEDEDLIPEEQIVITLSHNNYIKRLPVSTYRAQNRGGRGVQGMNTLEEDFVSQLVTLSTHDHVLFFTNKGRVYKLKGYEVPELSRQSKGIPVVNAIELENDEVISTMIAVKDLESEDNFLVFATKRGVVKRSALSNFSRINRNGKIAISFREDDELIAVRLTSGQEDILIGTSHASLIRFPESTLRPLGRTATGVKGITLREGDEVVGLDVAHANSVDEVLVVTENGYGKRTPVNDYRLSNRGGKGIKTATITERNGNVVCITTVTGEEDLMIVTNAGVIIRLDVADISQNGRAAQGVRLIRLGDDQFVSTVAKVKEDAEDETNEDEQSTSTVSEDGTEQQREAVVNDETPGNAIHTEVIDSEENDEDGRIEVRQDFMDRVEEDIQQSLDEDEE
# Sequence (P0A0K8 whole entry): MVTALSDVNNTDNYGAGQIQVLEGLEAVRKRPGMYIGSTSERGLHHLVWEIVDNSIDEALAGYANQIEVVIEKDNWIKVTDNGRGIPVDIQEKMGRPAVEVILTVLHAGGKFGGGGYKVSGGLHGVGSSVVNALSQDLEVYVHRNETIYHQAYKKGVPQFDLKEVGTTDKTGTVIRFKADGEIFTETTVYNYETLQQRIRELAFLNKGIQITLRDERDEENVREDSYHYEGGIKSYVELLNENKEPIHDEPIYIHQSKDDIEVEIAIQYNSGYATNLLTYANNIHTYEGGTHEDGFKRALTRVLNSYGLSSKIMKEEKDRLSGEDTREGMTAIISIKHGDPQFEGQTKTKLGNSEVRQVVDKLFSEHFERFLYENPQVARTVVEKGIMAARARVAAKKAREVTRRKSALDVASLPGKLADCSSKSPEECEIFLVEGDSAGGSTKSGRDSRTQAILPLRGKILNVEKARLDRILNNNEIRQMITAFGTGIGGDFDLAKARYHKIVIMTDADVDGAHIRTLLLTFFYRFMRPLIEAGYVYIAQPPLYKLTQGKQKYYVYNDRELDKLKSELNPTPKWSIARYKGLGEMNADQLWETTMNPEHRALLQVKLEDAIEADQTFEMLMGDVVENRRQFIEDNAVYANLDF
# EXPERIMENTAL PROTOCOL: In vitro DNA gyrase supercoiling enzymatic assay
VALUE KIND: IC50 (µM)
Form entry: value (µM) — number only.

Solved entries (count: 5):
{"CPD SMILES": "N#CC(=Cc1ccc(Cl)cc1)C(=O)Nc1ccc(S(=O)(=O)NC(=N)N)cc1", "MEASUREMENT UNITS": "µM", "IC50": 23.9}
{"CPD SMILES": "N=C(N)NS(=O)(=O)c1ccc(NC(=O)c2cc3ccccc3oc2=N)cc1", "MEASUREMENT UNITS": "µM", "IC50": 39.4}
{"CPD SMILES": "COc1ccc(/C=C(\\C#N)C(=O)Nc2ccc(S(=O)(=O)NC(=N)N)cc2)cc1O", "MEASUREMENT UNITS": "µM", "IC50": 18.2}
{"CPD SMILES": "Cc1cc(C)n(-c2ccc(S(=O)(=O)NC(=N)N)cc2)c(=O)c1C#N", "MEASUREMENT UNITS": "µM", "IC50": 39.1}
{"CPD SMILES": "N#Cc1c(-c2ccc(Cl)cc2)c(C#N)c(=O)n(-c2ccc(S(=O)(=O)NC(=N)N)cc2)c1N", "MEASUREMENT UNITS": "µM", "IC50": 22}

Moving on to another compound below.
I am curious: what IC50 value has been reported for `COc1ccc(/C=C(\C#N)C(=O)Nc2ccc(S(=O)(=O)NC(=N)N)cc2)cc1` ?
29.1

====

# Tested on: S. aureus ATCC 29213
# EXPERIMENTAL PROTOCOL: Inhibition zone, paper disk/agar diffusion; note: test concentration or dose not given here
# Format: cell-based
# ASSAY SETUP: S. aureus; Na = no activity
Listed next: entries and their corresponding Mean Diameter of the Inhibition Zone.
# answer = value followed by unit

Solved entries (count: 5):
{"CPD SMILES": "COc1ccc(/C=C(\\C#N)C(=O)Nc2ccc(S(=O)(=O)NC(=N)N)cc2)cc1", "STUDY SYSTEM": "S. aureus ATCC 29213", "Mean Diameter of the Inhibition Zone": "21 ± 0.3 mm"}
{"CPD SMILES": "Cc1cc(C=Cc2ccc(Cl)cc2)c(C#N)c(=O)n1-c1ccc(S(=O)(=O)NC(=N)N)cc1", "STUDY SYSTEM": "S. aureus ATCC 29213", "Mean Diameter of the Inhibition Zone": "17 ± 0.78 mm"}
{"CPD SMILES": "COc1ccc(/C=C(\\C#N)C(=O)Nc2ccc(S(=O)(=O)NC(=N)N)cc2)cc1O", "STUDY SYSTEM": "S. aureus ATCC 29213", "Mean Diameter of the Inhibition Zone": "33 ± 0.53 mm"}
{"CPD SMILES": "N=C(N)NS(=O)(=O)c1ccc(NC(=O)c2cc3ccccc3oc2=N)cc1", "STUDY SYSTEM": "S. aureus ATCC 29213", "Mean Diameter of the Inhibition Zone": "24 ± 0.29 mm"}
{"CPD SMILES": "Cc1cc2csc(N)c2c(=O)n1-c1ccc(S(=O)(=O)NC(=N)N)cc1", "STUDY SYSTEM": "S. aureus ATCC 29213", "Mean Diameter of the Inhibition Zone": "17 ± 0.48 mm"}

I am curious: what Mean Diameter of the Inhibition Zone value has been reported for `COc1ccc(C=Cc2cc(C)n(-c3ccc(S(=O)(=O)NC(=N)N)cc3)c(=O)c2C#N)cc1` ?
23 ± 0.12 mm

Thanks! And `Cc1cc(C)n(-c2ccc(S(=O)(=O)NC(=N)N)cc2)c(=O)c1C#N` ?
26 ± 0.14 mm

Thanks! And `N#C/C(=C\c1ccc(O)cc1)C(=O)Nc1ccc(S(=O)(=O)NC(=N)N)cc1` ?
21 ± 0.85 mm

====

# Tested on: S. aureus ATCC 29213
# EXPERIMENTAL PROTOCOL: MIC and MBC determination
# Type: cell-based
# ASSAY SETUP: Staphylococcus aureus, ATCC29213; S. aureus; read-out: MIC
Listed next: entries and their corresponding log10 MIC.
In plain terms, each number is the log10 of measured MIC in µM.

Solved entries (count: 5):
{"CPD SMILES": "Cc1cc(C)n(-c2ccc(S(=O)(=O)NC(=N)N)cc2)c(=O)c1C#N", "STUDY SYSTEM": "S. aureus ATCC 29213", "OBSERVED RESULT": 0.75}
{"CPD SMILES": "N#Cc1c(-c2ccc(Cl)cc2)c(C#N)c(=O)n(-c2ccc(S(=O)(=O)NC(=N)N)cc2)c1N", "STUDY SYSTEM": "S. aureus ATCC 29213", "OBSERVED RESULT": 1.22}
{"CPD SMILES": "COc1ccc(/C=C(\\C#N)C(=O)Nc2ccc(S(=O)(=O)NC(=N)N)cc2)cc1", "STUDY SYSTEM": "S. aureus ATCC 29213", "OBSERVED RESULT": 1.59}
{"CPD SMILES": "N=C(N)NS(=O)(=O)c1ccc(NC(=O)c2cc3ccccc3oc2=N)cc1", "STUDY SYSTEM": "S. aureus ATCC 29213", "OBSERVED RESULT": 1.31}
{"CPD SMILES": "COc1ccc(/C=C(\\C#N)C(=O)Nc2ccc(S(=O)(=O)NC(=N)N)cc2)cc1O", "STUDY SYSTEM": "S. aureus ATCC 29213", "OBSERVED RESULT": 1.13}

Moving on to another molecule below.
I am curious: what log10 MIC value has been reported for `N#CC(=Cc1ccc(Cl)cc1)C(=O)Nc1ccc(S(=O)(=O)NC(=N)N)cc1` ?
1.89
